- systemTested: human thyroid hormone receptors TRα1 (Homo sapiens, UniProt P10827)
- Construct: made in house; host or cells: Sf9 insect cells (baculovirus)
- Sequence (P10827 1-410 isoform P10827-2): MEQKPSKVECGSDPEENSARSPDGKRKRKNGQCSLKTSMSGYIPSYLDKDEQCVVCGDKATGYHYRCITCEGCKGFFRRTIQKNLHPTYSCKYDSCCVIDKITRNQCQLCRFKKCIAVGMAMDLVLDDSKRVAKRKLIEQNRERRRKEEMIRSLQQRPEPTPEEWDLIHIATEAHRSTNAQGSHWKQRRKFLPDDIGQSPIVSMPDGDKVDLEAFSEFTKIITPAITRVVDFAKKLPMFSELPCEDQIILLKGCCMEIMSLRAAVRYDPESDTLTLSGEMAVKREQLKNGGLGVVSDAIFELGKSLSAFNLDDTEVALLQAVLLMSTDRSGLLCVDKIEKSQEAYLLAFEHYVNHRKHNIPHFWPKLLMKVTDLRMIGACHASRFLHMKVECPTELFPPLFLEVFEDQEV
- Sequence (P19793 whole entry partner): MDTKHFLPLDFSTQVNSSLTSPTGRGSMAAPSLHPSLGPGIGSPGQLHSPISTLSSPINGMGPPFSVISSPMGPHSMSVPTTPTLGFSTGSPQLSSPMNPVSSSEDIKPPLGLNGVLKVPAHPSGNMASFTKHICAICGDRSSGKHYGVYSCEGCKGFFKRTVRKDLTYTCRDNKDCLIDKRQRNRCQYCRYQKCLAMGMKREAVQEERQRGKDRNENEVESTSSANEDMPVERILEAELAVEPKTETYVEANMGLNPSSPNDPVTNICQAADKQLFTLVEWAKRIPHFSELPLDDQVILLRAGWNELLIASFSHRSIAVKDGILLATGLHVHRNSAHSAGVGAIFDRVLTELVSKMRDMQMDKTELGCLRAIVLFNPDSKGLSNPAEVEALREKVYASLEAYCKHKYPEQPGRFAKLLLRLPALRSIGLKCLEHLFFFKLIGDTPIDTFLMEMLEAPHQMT
- experimentDescription: Receptor binding to TRα1 (gel filtration and scintillation proximity assay, labeled T3)
- protocolConditions: SPA data; read-out: Ki TRα
Kindly state pKi for each of the entries shown.
Keep it numeric: pKi is minus log10 of the concentration in mol/L.

# lookup: pKi of COP(=O)(O)Cc1cc(Br)c(Oc2ccc(O)c(C(C)C)c2)c(Br)c1 [Compound 69-2]
8.55

Try this molecule too: Cc1cc(NCP(=O)(O)O)cc(C)c1Cc1ccc(O)c(C(C)C)c1 [Compound 47]
7.61

Try this molecule too: CC(C)c1cc(Oc2c(Br)cc(CCP(=O)(O)O)cc2Br)ccc1O [Compound 67]
7.43
